Data origin: patent US20260193293A1

Biological target: Sushi domains (SD1/2) protein
Assay: Fluorescence polarization (FP) competition assay with AJAP-1probe, calculated Ki
Type: binding
Conditions: Table 7, Ala-, D-amino acids and N-methylation scans of APPWT; read-out: Ki (nM) mean ± SEM
Non-standard residues stand in square brackets, D forms with d. Residues, ends and D or L forms follow the SMILES beside them. NMeD = CN[C@@H](CC(=O)O)C(=O)O
Items are presented alongside their recorded Ki.
Quick reminder: number only, in nM, skip the unit.

Compound	Ki / nM
CC(=O)N[C@@H](CCC(=O)O)C(=O)N[C@@H](CC(=O)O)C(=O)N[C@@H](CC(=O)O)C(=O)N[C@@H](CO)C(=O)N[C@@H](CC(=O)O)C(=O)N[C@H](C(=O)N[C@@H](Cc1c[nH]c2ccccc12)C(=O)N[C@@H](Cc1c[nH]c2ccccc12)C(=O)NCC(=O)NCC(=O)N[C@@H](C)C(=O)N[C@@H](CC(=O)O)C(=O)N[C@H](C(=O)N[C@@H](C)C(N)=O)[C@@H](C)O)C(C)C (Ac-EDDSDVWWGGADTA-NH2)	786
CC(=O)N[C@@H](CCC(=O)O)C(=O)N[C@@H](CC(=O)O)C(=O)N[C@@H](CC(=O)O)C(=O)N[C@@H](CO)C(=O)N[C@@H](C)C(=O)N[C@H](C(=O)N[C@@H](Cc1c[nH]c2ccccc12)C(=O)N[C@@H](Cc1c[nH]c2ccccc12)C(=O)NCC(=O)NCC(=O)N[C@@H](C)C(=O)N[C@@H](CC(=O)O)C(=O)N[C@H](C(=O)N[C@@H](CC(=O)O)C(N)=O)[C@@H](C)O)C(C)C (Ac-EDDSAVWWGGADTD-NH2)	3080
CC(=O)N[C@@H](CCC(=O)O)C(=O)N[C@@H](CC(=O)O)C(=O)N(C)[C@@H](CC(=O)O)C(=O)N[C@@H](CO)C(=O)N[C@@H](CC(=O)O)C(=O)N[C@H](C(=O)N[C@@H](Cc1c[nH]c2ccccc12)C(=O)N[C@@H](Cc1c[nH]c2ccccc12)C(=O)NCC(=O)NCC(=O)N[C@@H](C)C(=O)N[C@@H](CC(=O)O)C(=O)N[C@H](C(=O)N[C@@H](CC(=O)O)C(N)=O)[C@@H](C)O)C(C)C (Ac-ED[NMeD]SDVWWGGADTD-NH2)	671

// CC(=O)N[C@@H](CCC(=O)O)C(=O)N[C@@H](C)C(=O)N[C@@H](CC(=O)O)C(=O)N[C@@H](CO)C(=O)N[C@@H](CC(=O)O)C(=O)N[C@H](C(=O)N[C@@H](Cc1c[nH]c2ccccc12)C(=O)N[C@@H](Cc1c[nH]c2ccccc12)C(=O)NCC(=O)NCC(=O)N[C@@H](C)C(=O)N[C@@H](CC(=O)O)C(=O)N[C@H](C(=O)N[C@@H](CC(=O)O)C(N)=O)[C@@H](C)O)C(C)C (Ac-EADSDVWWGGADTD-NH2) : Ki value = 1240

Reported Ki for CC(=O)N[C@@H](C)C(=O)N[C@@H](CC(=O)O)C(=O)N[C@@H](CC(=O)O)C(=O)N[C@@H](CO)C(=O)N[C@@H](CC(=O)O)C(=O)N[C@H](C(=O)N[C@@H](Cc1c[nH]c2ccccc12)C(=O)N[C@@H](Cc1c[nH]c2ccccc12)C(=O)NCC(=O)NCC(=O)N[C@@H](C)C(=O)N[C@@H](CC(=O)O)C(=O)N[C@H](C(=O)N[C@@H](CC(=O)O)C(N)=O)[C@@H](C)O)C(C)C (Ac-ADDSDVWWGGADTD-NH2) was 803

Lab book: Ki of CC(=O)N[C@@H](CCC(=O)O)C(=O)N[C@@H](CC(=O)O)C(=O)N[C@@H](CC(=O)O)C(=O)N[C@@H](CO)C(=O)N[C@@H](CC(=O)O)C(=O)N[C@H](C(=O)N[C@@H](Cc1c[nH]c2ccccc12)C(=O)N[C@@H](Cc1c[nH]c2ccccc12)C(=O)NCC(=O)NCC(=O)N[C@@H](C)C(=O)N(C)[C@@H](CC(=O)O)C(=O)N[C@H](C(=O)N[C@@H](CC(=O)O)C(N)=O)[C@@H](C)O)C(C)C (Ac-EDDSDVWWGGA[NMeD]TD-NH2) noted as 403

Ki reported for this compound CC(=O)N[C@@H](CCC(=O)O)C(=O)N[C@@H](CC(=O)O)C(=O)N[C@@H](CC(=O)O)C(=O)N[C@@H](CO)C(=O)N[C@@H](CC(=O)O)C(=O)N[C@H](C(=O)N[C@@H](Cc1c[nH]c2ccccc12)C(=O)N[C@@H](Cc1c[nH]c2ccccc12)C(=O)NCC(=O)NCC(=O)N[C@@H](C)C(=O)N[C@@H](CC(=O)O)C(=O)N[C@@H](C)C(=O)N[C@@H](CC(=O)O)C(N)=O)C(C)C (Ac-EDDSDVWWGGADAD-NH2) : 480

====

Target: Sushi domains (SD1/2) protein
Test: Fluorescence polarization (FP) competition assay with AJAP-1probe, calculated Ki
Format: binding
Conditions: Table 13, peptides for affinity maturation; read-out: Ki (nM) mean ± SEM
Non-standard residues stand in square brackets, D forms with d. Residues, ends and D or L forms follow the SMILES beside them. Sar = CNCC(=O)O
The following molecules are shown together with reported Ki values.
Please give a number only; it is taken to be in nM.

Molecule	Observed Result
CC[C@H](C)[C@H](NC(=O)[C@H](Cc1ccccc1)NC(=O)[C@H](CCC(=O)O)NC(=O)[C@@H](NC(=O)[C@H](CCC(=O)O)NC(C)=O)[C@@H](C)O)C(=O)N[C@@H](C)C(=O)N[C@@H](Cc1c[nH]c2ccccc12)C(=O)N[C@@H](Cc1ccc(O)cc1)C(=O)NCC(=O)N1CCC[C@H]1C(=O)N[C@@H](C)C(=O)N[C@@H](CC(=O)O)C(=O)N[C@H](C(=O)N[C@@H](CC(=O)O)C(N)=O)[C@@H](C)O (Ac-ETEFIAWYGPADTD-NH2)	182
CC[C@H](C)[C@H](NC(=O)[C@H](Cc1ccccc1)NC(=O)[C@H](CCC(=O)O)NC(=O)[C@@H](NC(=O)[C@H](CCC(=O)O)NC(C)=O)[C@@H](C)O)C(=O)N[C@@H](C)C(=O)N[C@@H](Cc1c[nH]c2ccccc12)C(=O)N[C@@H](Cc1ccc(O)cc1)C(=O)NCC(=O)N[C@@H](C)C(=O)N[C@@H](CC(=O)O)C(=O)N[C@H](C(=O)N[C@@H](CC(=O)O)C(N)=O)[C@@H](C)O [Peptide 37] (Ac-ETEFIAWYGADTD-NH2)	95

Read the next record carefully.
So for CC(=O)N[C@@H](CCC(=O)O)C(=O)N[C@@H](CC(=O)O)C(=O)N[C@@H](CC(=O)O)C(=O)N[C@@H](CO)C(=O)N[C@@H](CC(=O)O)C(=O)N[C@H](C(=O)N[C@@H](Cc1c[nH]c2ccccc12)C(=O)N[C@@H](Cc1c[nH]c2ccccc12)C(=O)NCC(=O)N(C)CC(=O)N[C@@H](C)C(=O)N[C@@H](CC(=O)O)C(=O)N[C@H](C(=O)N[C@@H](CC(=O)O)C(N)=O)[C@@H](C)O)C(C)C (Ac-EDDSDVWWG[Sar]ADTD-NH2) , the logged Ki turned out to be 161

====

Biological target: Sushi domains (SD1/2) protein
Assay: Fluorescence polarization (FP) competition assay with AJAP-1probe, calculated Ki
Type: binding
Conditions: Table 4, truncation and elongation scans of APP epitope; read-out: Ki (nM) mean ± SEM
Residues, ends and D or L forms follow the SMILES beside them.
Observation Type: Ki (nM)
# output: bare number, implied unit nM

Consider CC(=O)N[C@@H](CC(=O)O)C(=O)N[C@@H](CO)C(=O)N[C@@H](CC(=O)O)C(=O)N[C@H](C(=O)N[C@@H](Cc1c[nH]c2ccccc12)C(=O)N[C@@H](Cc1c[nH]c2ccccc12)C(=O)NCC(=O)NCC(=O)N[C@@H](C)C(=O)N[C@@H](CC(=O)O)C(=O)N[C@H](C(=O)N[C@@H](CC(=O)O)C(=O)N[C@@H](Cc1ccc(O)cc1)C(=O)N[C@@H](C)C(=O)N[C@@H](CC(=O)O)C(N)=O)[C@@H](C)O)C(C)C (Ac-DSDVWWGGADTDYAD-NH2) . Its measured Ki is 1500

====

Target: Sushi domains (SD1/2) protein
Experiment: Fluorescence polarization (FP) competition assay with AJAP-1probe, calculated Ki
Assay type: binding
Conditions: Table 11, deep mutational scanning validation variants of AJAP-1WT; read-out: Ki (nM) mean ± SEM
Residues, ends and D or L forms follow the SMILES beside them.
Observation Type: Ki (nM)
Write the value in nM as a bare number.

Compound	Assayed System	Ki / nM
CC[C@H](C)[C@H](NC(=O)[C@H](Cc1ccccc1)NC(=O)[C@H](CCC(=O)O)NC(=O)[C@@H](NC(=O)[C@H](CCC(=O)O)NC(C)=O)[C@@H](C)O)C(=O)N[C@@H](C)C(=O)N[C@@H](Cc1c[nH]c2ccccc12)C(=O)NCC(=O)N1CCC[C@H]1C(=O)N[C@H](C(=O)NCC(=O)N[C@@H](CC(=O)O)C(=O)N[C@@H](CCC(=O)O)C(=O)N1CCC[C@H]1C(N)=O)[C@@H](C)O (Ac-ETEFIAWGPTGDEP-NH2)	Sushi domains (SD1/2) protein	41

Here CC[C@H](C)[C@H](NC(=O)[C@H](Cc1ccccc1)NC(=O)[C@H](CCC(=O)O)NC(=O)[C@@H](NC(=O)[C@H](CCC(=O)O)NC(C)=O)[C@@H](C)O)C(=O)N[C@@H](C)C(=O)N[C@@H](Cc1c[nH]c2ccccc12)C(=O)NCC(=O)N1CCC[C@H]1C(=O)N[C@H](C(=O)NCC(=O)N[C@@H](Cc1ccc(O)cc1)C(=O)N[C@@H](CCC(=O)O)C(=O)N[C@@H](CC(=O)O)C(N)=O)[C@@H](C)O [ETEFIAWGPTGYED] (Ac-ETEFIAWGPTGYED-NH2) was tested on Sushi domains (SD1/2) protein, and its Ki came to 41

The measured Ki that `CC[C@H](C)[C@H](NC(=O)[C@H](Cc1ccccc1)NC(=O)[C@H](CCC(=O)O)NC(=O)[C@@H](NC(=O)[C@H](CCC(=O)O)NC(C)=O)[C@@H](C)O)C(=O)N[C@@H](C)C(=O)N[C@@H](Cc1c[nH]c2ccccc12)C(=O)NCC(=O)N1CCC[C@H]1C(=O)N[C@H](C(=O)N[C@@H](Cc1ccccc1)C(=O)N[C@@H](CC(=O)O)C(=O)N[C@@H](CCC(=O)O)C(=O)N[C@@H](CC(=O)O)C(N)=O)[C@@H](C)O` showed for Sushi domains (SD1/2) protein is 46

Observed Ki on Sushi domains (SD1/2) protein, entry CC[C@H](C)[C@H](NC(=O)[C@H](Cc1ccccc1)NC(=O)[C@H](CCC(=O)O)NC(=O)[C@@H](NC(=O)[C@H](CCC(=O)O)NC(C)=O)[C@@H](C)O)C(=O)N[C@@H](C)C(=O)N[C@@H](Cc1c[nH]c2ccccc12)C(=O)NCC(=O)N1CCC[C@H]1C(=O)N[C@H](C(=O)NCC(=O)N[C@@H](CC(=O)O)C(=O)N[C@@H](CCC(=O)O)C(=O)N[C@@H](Cc1ccccc1)C(N)=O)[C@@H](C)O (Ac-ETEFIAWGPTGDEF-NH2) , equals 48

Sushi domains (SD1/2) protein Ki of CC[C@H](C)[C@H](NC(=O)[C@H](Cc1ccccc1)NC(=O)[C@H](CCC(=O)O)NC(=O)[C@@H](NC(=O)[C@H](CCC(=O)O)NC(C)=O)[C@@H](C)O)C(=O)N[C@@H](C)C(=O)N[C@@H](Cc1c[nH]c2ccccc12)C(=O)NCC(=O)N1CCC[C@H]1C(=O)N[C@@H](CO)C(=O)NCC(=O)N[C@@H](CC(=O)O)C(=O)N[C@@H](CCC(=O)O)C(=O)N[C@@H](CC(=O)O)C(N)=O [ETEFIAWGPSGDED] (Ac-ETEFIAWGPSGDED-NH2) is 32
